- runDescription: The compound was evaluated for the inhibition of glycogen phosphorylase
pKi: −log10 of the molar value.
# pKi >= 4 gives Fulfilled, anything below gives Not fulfilled

NC(=O)C1OC(CO)C(O)C(O)C1O (stereo in doubt; 10) | Not fulfilled
CC(=O)N[C@H]1O[C@H](CO)[C@@H](O)[C@H](O)[C@H]1O | Fulfilled
CO[C@@H]1O[C@H](CO)[C@H](O)[C@H](O)[C@H]1O | Not fulfilled
CNC(=O)C1OC(CO)C(O)C(O)C1O (stereo in doubt; 22) | Not fulfilled
O=C(CBr)N[C@H]1O[C@@H](CO)[C@@H](O)[C@H](O)[C@@H]1O | Fulfilled

Now look at this one.
State whether the measured pKi reaches 4, counting equality as reaching it, for O=C(Nc1ccccc1)C1OC(CO)C(O)C(O)C1O (stereo unspecified)
Not fulfilled

###

- runDescription: The compound was evaluated for the inhibition of glycogen phosphorylase
measurementLabel: pKi
Bear in mind: pKi is minus log10 of a mol/L concentration; give just that figure.

O=C(CCl)N[C@H]1O[C@H](CO)[C@@H](O)[C@H](O)[C@H]1O | 4.35

Param item = "O=C(N[C@H]1O[C@H](CO)[C@@H](O)[C@H](O)[C@H]1O)c1ccccc1" ; retrieve measured pKi.
4.09

Param item = "OC[C@H]1O[C@](O)(CO)[C@@H](O)[C@H](O)[C@H]1O" ; retrieve measured pKi.
1.80

###

Listed next: entries and their corresponding Ki.
- runDescription: The compound was evaluated for the inhibition of glycogen phosphorylase
The response must be a number in µM with no trailing unit.

CNC(=O)C1OC(CO)C(O)C(O)C1O (stereo in doubt; 8) | 160
CCCC(=O)N[C@H]1O[C@H](CO)[C@@H](O)[C@H](O)[C@H]1O | 94
NC(=O)C1OC(CO)C(O)C(O)C1O (stereo in doubt; 11) | 440
NNC(=O)[C@@H]1O[C@H](CO)[C@@H](O)[C@H](O)[C@H]1O | 980
OCC1OC(S)C(O)C(O)C1O (configuration not stated) | 1000
CC1OC(CO)C(O)C(O)C1O (configuration not stated) | 53100

Param item = "CCC(=O)N[C@H]1O[C@H](CO)[C@@H](O)[C@H](O)[C@H]1O" ; retrieve measured Ki.
39

Param item = NCC1OC(CO)C(O)C(O)C1O (configuration not stated) ; retrieve measured Ki.
34500

###

- runDescription: The compound was evaluated for the inhibition of glycogen phosphorylase
Listed next: entries and their corresponding Ki.
The response must be a number in µM with no trailing unit.

Example entries and their recorded answers appear below.
OCC1OC(CO)C(O)C(O)C1O (centres undefined) | 1500
NC(=O)N[C@H]1O[C@H](CO)[C@@H](O)[C@H](O)[C@H]1O | 140
N#CC[C@@H]1O[C@H](CO)[C@@H](O)[C@H](O)[C@H]1O | 9000

The record that follows has no Ki shown yet.
Param item = "NCC(=O)N[C@H]1O[C@@H](CO)[C@@H](O)[C@H](O)[C@@H]1O" ; retrieve measured Ki.
370
